# Test system: 786-0 renal
# methodNotes: NCI tumour cell line growth inhibition, 48 h; in the data active means GI50 below about 0.43 µM; inactive means the rest
The reply should be one of these categories: 1 = active, -1 = inactive

Use the examples below as a reference point.
COC(=O)/C=C/c1cc(O)c2oc(-c3ccc(O)c(O)c3)c(C(=O)OC)c2c1    -1
COc1ccc2c(c1)C(C)Cc1c(Cl)ncnc1N2C (stereo not drawn)    1
Cc1ccc(C(SCC(N)C(=O)O)(c2ccccc2)c2ccc(C)cc2)cc1 (stereo not drawn)    -1
COCCOc1cc(F)c2c(Nc3ccc(NC(=O)Cn4cc(C(C)C)nn4)cc3)ncnc2c1    -1
Cn1cc(C2=C(c3ccc4ccccc4c3)C(=O)NC2=O)c2ccccc21    -1
C[C@H]1c2cccc(O)c2C(O)=C2C(=O)[C@]3(O)C(O)=C(C(N)=O)C(=O)[C@@H](N(C)C)[C@@H]3[C@@H](O)[C@@H]21    -1
CC[C@]12C=CCN3CC[C@@]4(c5ccc(OC)cc5N(C)[C@H]4[C@@](O)(C(=O)OC)[C@@H]1OC(=O)CCC[P+](c1ccccc1)(c1ccccc1)c1ccccc1)[C@@H]32    -1

As a next step, examine the molecule that follows.
Any idea what this test logged for CC(O)C(N=Cc1ccccc1[O-])C(=O)[O-].CC(O)C(N=Cc1ccccc1[O-])C(=O)[O-].[Co+2] (stereo not drawn) ?
-1

# credit: PubChem BioAssay (NCI)
